system: KM12; experiment: Growth inhibition of human KM12 cells after 48 hrs by sulforhodamine B assay; format: functional; conditions: KM12, 48 h
Recorded endpoint: GI50 (nM)
Note: unit nM is implicit; provide only the numeric part.

O=c1[nH]cc(F)c(=O)[nH]1 | 210

## Input Fill in GI50 for record Cc1cc(O)ccc1C1=NN(c2ccc(S(C)(=O)=O)cc2)C(=O)CC1
## Output 4220

## Input Consider the compound CCc1ccc(C2=NN(c3ccc(S(C)(=O)=O)cc3)C(=O)CC2)cc1 and give its recorded GI50.
## Output 930

## Input Respond only with GI50 recorded for Cc1ccc(C2=NN(c3ccc(S(C)(=O)=O)cc3)C(=O)CC2)cc1
## Output 440

----------
Reported GI50 values for a set of compounds
system: OVCAR-4; assay: Growth inhibition of human OVCAR4 cells after 48 hrs by sulforhodamine B assay; type: functional; settings: OVCAR-4, 48 h
Give a bare numeral; the unit µM is implied.

Below are worked cases with known answers.
CCc1ccc(C2=NN(c3ccc(S(C)(=O)=O)cc3)C(=O)CC2)cc1 | 0.01
O=c1[nH]cc(F)c(=O)[nH]1 [FLUOROURACIL] | 4.43

Moving on to another compound below.
## Input Respond only with GI50 recorded for Cc1cc(O)ccc1C1=NN(c2ccc(S(C)(=O)=O)cc2)C(=O)CC1
## Output 76.9

----------
tested on: RPMI-8226; assay: Growth inhibition of human RPMI8226 cells after 48 hrs by sulforhodamine B assay; format: functional; conditions: RPMI-8226, 48 h
Recorded endpoint: GI50 (nM)
Numeric answer only, unit nM assumed.

## Input Report measured GI50; entry is Cc1ccc(C2=NN(c3ccc(S(C)(=O)=O)cc3)C(=O)CC2)cc1
## Output 2780

## Input Identify GI50 associated with the compound O=c1[nH]cc(F)c(=O)[nH]1 [FLUOROURACIL]
## Output 40

## Input Query GI50 for CCc1ccc(C2=NN(c3ccc(S(C)(=O)=O)cc3)C(=O)CC2)cc1
## Output 420

## Input Give GI50 for the following compound: Cc1cc(O)ccc1C1=NN(c2ccc(S(C)(=O)=O)cc2)C(=O)CC1
## Output 25600

----------
test system: Rattus norvegicus; assay: Antiinflammatory activity in Wistar rat assessed as inhibition of carrageenan-induced paw edema at 0.05 mmol/kg, po administered 30 mins prior challenge measured after 5 hrs; assay type: functional
Reported inhibition in vivo at 50 µmol/kg values follow for various compounds
Write it as a number; the unit % goes unstated.

Cc1ccc(O)c(C2=NN(c3ccc(S(C)(=O)=O)cc3)C(=O)CC2)c1 | 86.8

Let us examine a further case.
## Input Report inhibition in vivo at 50 µmol/kg under test system Rattus norvegicus for CS(=O)(=O)c1ccc(N2N=C(c3ccc(O)c(Cl)c3)CCC2=O)cc1 .
## Output 55.2

----------
Documented GI50 across a set of molecules
tested on: M14; experiment: Growth inhibition of human M14 cells after 48 hrs by sulforhodamine B assay; format: functional; conditions: M14, 48 h
Please respond with the number in nM and leave the unit unwritten.

See these solved cases before continuing.
Cc1cc(O)ccc1C1=NN(c2ccc(S(C)(=O)=O)cc2)C(=O)CC1 | 3850
Cc1ccc(C2=NN(c3ccc(S(C)(=O)=O)cc3)C(=O)CC2)cc1 | 380

## Input // Input: CCc1ccc(C2=NN(c3ccc(S(C)(=O)=O)cc3)C(=O)CC2)cc1 . Output its GI50 only.
## Output 630

## Input State, in one line, measured GI50 of O=c1[nH]cc(F)c(=O)[nH]1 [FLUOROURACIL]
## Output 980

----------
The compounds listed here are annotated with their GI50.
tested on: SF-268; assay: Growth inhibition of human SF268 cells after 48 hrs by sulforhodamine B assay; format: functional; conditions: SF-268, 48 h
Quick reminder: number only, in µM, skip the unit.

O=c1[nH]cc(F)c(=O)[nH]1 | 1.62

## Input Assign GI50 to the following record: Cc1cc(O)ccc1C1=NN(c2ccc(S(C)(=O)=O)cc2)C(=O)CC1
## Output 40

## Input For the compound Cc1ccc(C2=NN(c3ccc(S(C)(=O)=O)cc3)C(=O)CC2)cc1 , give its reported GI50.
## Output 2.94

## Input Find the measured GI50 of CCc1ccc(C2=NN(c3ccc(S(C)(=O)=O)cc3)C(=O)CC2)cc1 and report it.
## Output 6.99

----------
test system: SK-MEL-28; assay: Growth inhibition of human SK-MEL-28 cells after 48 hrs by sulforhodamine B assay; assay type: functional; conditions: SK-MEL-28, 48 h
GI50: recorded values
Report the figure in µM without appending any unit label.

Here's what some known entries look like.
Cc1cc(O)ccc1C1=NN(c2ccc(S(C)(=O)=O)cc2)C(=O)CC1 | 9.56
CCc1ccc(C2=NN(c3ccc(S(C)(=O)=O)cc3)C(=O)CC2)cc1 | 1.84

## Input # assay system SK-MEL-28: give GI50 of O=c1[nH]cc(F)c(=O)[nH]1
## Output 1.03

## Input Look up and report measured GI50 (SK-MEL-28) for the following molecule: Cc1ccc(C2=NN(c3ccc(S(C)(=O)=O)cc3)C(=O)CC2)cc1
## Output 0.66

----------
tested on: HL-60(TB); experiment: Growth inhibition of human HL-60(TB) cells after 48 hrs by sulforhodamine B assay; type: functional; conditions: HL-60, 48 h
Recorded endpoint: GI50 (nM)
Numeric answer only, unit nM assumed.

Here are 3 compounds together with their reported answers.
O=c1[nH]cc(F)c(=O)[nH]1 | 2300
Cc1cc(O)ccc1C1=NN(c2ccc(S(C)(=O)=O)cc2)C(=O)CC1 | 3520
Cc1ccc(C2=NN(c3ccc(S(C)(=O)=O)cc3)C(=O)CC2)cc1 | 400

Next:
## Input Please report GI50 for the following compound: CCc1ccc(C2=NN(c3ccc(S(C)(=O)=O)cc3)C(=O)CC2)cc1
## Output 1200

----------
tested on: HOP-92; test: Growth inhibition of human HOP92 cells after 48 hrs by sulforhodamine B assay; type: functional; details: HOP-92, 48 h
Recorded endpoint: GI50 (µM)
Only the number, expressed in µM, is required.

Cc1ccc(C2=NN(c3ccc(S(C)(=O)=O)cc3)C(=O)CC2)cc1 | 0.42
CCc1ccc(C2=NN(c3ccc(S(C)(=O)=O)cc3)C(=O)CC2)cc1 | 1.58
Cc1cc(O)ccc1C1=NN(c2ccc(S(C)(=O)=O)cc2)C(=O)CC1 | 6.49

We now examine a further compound.
## Input For HOP-92, give GI50 of the listed compound: O=c1[nH]cc(F)c(=O)[nH]1
## Output 77.9

----------
test system: LOX IMVI; test: Growth inhibition of human LOXIMVI cells after 48 hrs by sulforhodamine B assay; type: functional
Recorded endpoint: GI50 (nM)
Report the value in nM with no unit label.

Cc1ccc(C2=NN(c3ccc(S(C)(=O)=O)cc3)C(=O)CC2)cc1 | 740
O=c1[nH]cc(F)c(=O)[nH]1 [FLUOROURACIL] | 240
Cc1cc(O)ccc1C1=NN(c2ccc(S(C)(=O)=O)cc2)C(=O)CC1 | 7250

Now take the following molecule into account.
## Input Return reported GI50. Input molecule: CCc1ccc(C2=NN(c3ccc(S(C)(=O)=O)cc3)C(=O)CC2)cc1
## Output 3500

----------
test system: IGROV-1; test: Growth inhibition of human IGROV1 cells after 48 hrs by sulforhodamine B assay; format: functional; conditions: IGROV-1, 48 h
Recorded endpoint: GI50 (nM)
Your answer is read as nM, so omit the unit and give the number.

Please review the entries below; each comes with its answer.
O=c1[nH]cc(F)c(=O)[nH]1 | 1220
Cc1ccc(C2=NN(c3ccc(S(C)(=O)=O)cc3)C(=O)CC2)cc1 | 830
Cc1cc(O)ccc1C1=NN(c2ccc(S(C)(=O)=O)cc2)C(=O)CC1 | 7130

## Input Output GI50 of CCc1ccc(C2=NN(c3ccc(S(C)(=O)=O)cc3)C(=O)CC2)cc1
## Output 1480

----------
system: K562; experiment: Growth inhibition of human K562 cells after 48 hrs by sulforhodamine B assay; format: functional; conditions: K562, 48 h
Recorded endpoint: GI50 (µM)
# output: bare number, implied unit µM

O=c1[nH]cc(F)c(=O)[nH]1 [FLUOROURACIL] | 3.58
Cc1cc(O)ccc1C1=NN(c2ccc(S(C)(=O)=O)cc2)C(=O)CC1 | 3.74
Cc1ccc(C2=NN(c3ccc(S(C)(=O)=O)cc3)C(=O)CC2)cc1 | 0.37

Now, please, on to the next molecule.
## Input Please indicate GI50 recorded for CCc1ccc(C2=NN(c3ccc(S(C)(=O)=O)cc3)C(=O)CC2)cc1
## Output 0.42

----------
GI50 reference
test system: MOLT-4; assay: Growth inhibition of human MOLT4 cells after 48 hrs by sulforhodamine B assay; format: functional; conditions: MOLT-4, 48 h
Please give a number only; it is taken to be in nM.

Below: 2 compounds and their reported GI50.
CCc1ccc(C2=NN(c3ccc(S(C)(=O)=O)cc3)C(=O)CC2)cc1 | 3520
Cc1cc(O)ccc1C1=NN(c2ccc(S(C)(=O)=O)cc2)C(=O)CC1 | 14300

## Input Please supply the value of reported GI50 for the item O=c1[nH]cc(F)c(=O)[nH]1 [FLUOROURACIL]
## Output 350

## Input Give me measured GI50, please, for this compound: Cc1ccc(C2=NN(c3ccc(S(C)(=O)=O)cc3)C(=O)CC2)cc1
## Output 860

Every entry's value here was drawn from ChEMBL document CHEMBL2417474.
